Values were extracted from the supplement of paper PMC10567573.

I'd appreciate it if you could supply protein stability index values for the items below.
B1: POLD4 (parent)
chain: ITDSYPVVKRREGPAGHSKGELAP

variants of: B1; experiment: protein stability index of a GFP-peptide fusion (GPS, HEK-293T) (PSI 1-6); higher = more stable; details: c terminus: a fixed tail appended;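 also: lentivirally expressed fusions sorted by FACS into six bins by GFP to DsRed ratio, PSI derived from sequencing read proportions per bin multiplied by bin number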
Could you keep your reply to the number by itself?

What value of protein stability index has been reported for the following variant? `L22M`
3.21

What value of protein stability index has been reported for the following variant? `A15E`
3.33

What value of protein stability index has been reported for the following variant? `G13L`
2.75

What value of protein stability index has been reported for the following variant? `V8S`
4.84

What value of protein stability index has been reported for the following variant? `P14G`
2.98

What value of protein stability index has been reported for the following variant? `T2H`
4.41

What value of protein stability index has been reported for the following variant? `D3G`
4.07

What value of protein stability index has been reported for the following variant? `G13H`
3.24

What value of protein stability index has been reported for the following variant? `K9W`
4.14

What value of protein stability index has been reported for the following variant? `V8T`
4.42

What value of protein stability index has been reported for the following variant? `S4E`
4.58
